FYI, the data here is from paper PMC9667936.

The following compounds are listed with their measured ΔΔG (to previous) values.
# measured-target: 14-3-3γ (Homo sapiens, UniProt P61981)
# Construct: made in house; host or cells: E. coli NiCo21 (DE3)
# Sequence (P61981 whole entry): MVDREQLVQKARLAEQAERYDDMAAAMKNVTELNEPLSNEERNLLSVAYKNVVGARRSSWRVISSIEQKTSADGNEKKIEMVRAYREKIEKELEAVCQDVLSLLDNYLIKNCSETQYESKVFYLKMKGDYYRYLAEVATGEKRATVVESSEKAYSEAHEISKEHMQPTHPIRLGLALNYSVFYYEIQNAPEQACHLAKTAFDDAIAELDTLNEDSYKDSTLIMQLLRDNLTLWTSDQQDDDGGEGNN
# method: Fluorescence anisotropy (FA) binary binding study: 14-3-3 titrated to fluorescein-labelled peptide
# experimental-setup: Table S3; ΔG minus ΔG of previous peptide, FA; replicate 2
Where a SMILES comes first, the peptide text is derived from it. [ ]: non-standard residue; d: D form. The star is where a group is joined. ξ: configuration not given here. FITC = O=C1OC2(c3ccc(O)cc3Oc3cc(O)ccc32)c2ccc(NC(=S)*)cc21; Phe(4-NO2) = N[C@@H](Cc1ccc([N+](=O)[O-])cc1)C(=O)O; ξAla(4-thiazolyl) = NC(Cc1cscn1)C(=O)O; pS = N[C@@H](COP(=O)(O)O)C(=O)O; β3hS = N[C@@H](CO)CC(=O)O; Nva = CCC[C@H](N)C(=O)O; AEA = NCCOCC(=O)O; βAla = NCCC(=O)O

Below are worked cases with known answers.
• CCC[C@H](NC(=O)[C@@H](CCCCN)NC(=O)COCCNC(=S)Nc1ccc2c(c1)C(=O)OC21c2ccc(O)cc2Oc2cc(O)ccc21)C(=O)N[C@@H](Cc1ccc([N+](=O)[O-])cc1)C(=O)NC(Cc1cscn1)C(=O)N[C@@H](COP(=O)(O)O)C(=O)N[C@@H](Cc1ccc([N+](=O)[O-])cc1)C(=O)N[C@@H](CO)CC(=O)NCCC(N)=O (stereo partly drawn) [2f] ({FITC-AEA}-[dK][Nva][Phe(4-NO2)][ξAla(4-thiazolyl)][pS][Phe(4-NO2)][β3hS][βAla]-NH2) = 1,45 kcal/mol
• CCC[C@H](NC(=O)[C@@H](CCCCN)NC(=O)COCCNC(=S)Nc1ccc2c(c1)C(=O)OC21c2ccc(O)cc2Oc2cc(O)ccc21)C(=O)N[C@@H](Cc1ccc([N+](=O)[O-])cc1)C(=O)NC(Cc1cscn1)C(=O)N[C@@H](COP(=O)(O)O)C(N)=O (stereo partly drawn) [2i] ({FITC-AEA}-[dK][Nva][Phe(4-NO2)][ξAla(4-thiazolyl)][pS]-NH2) = 0,75 kcal/mol

# context switch: different compound, same ΔΔG (to previous)
Exercise: Need ΔΔG (to previous), item CCC[C@H](NC(=O)[C@@H](CCCCN)NC(=O)COCCNC(=S)Nc1ccc2c(c1)C(=O)OC21c2ccc(O)cc2Oc2cc(O)ccc21)C(=O)N[C@@H](Cc1ccc([N+](=O)[O-])cc1)C(=O)NC(Cc1cscn1)C(=O)N[C@@H](COP(=O)(O)O)C(=O)N[C@@H](Cc1ccc([N+](=O)[O-])cc1)C(=O)N[C@@H](CO)CC(N)=O (stereo partly drawn) [2g] ({FITC-AEA}-[dK][Nva][Phe(4-NO2)][ξAla(4-thiazolyl)][pS][Phe(4-NO2)][β3hS]-NH2)
Key: 0,36 kcal/mol
